- Test system: RAW-Dual (murine macrophage reporter line)
- ASSAY EXPLANATION: NF-kB reporter (SEAP) activity fold change vs agonist alone; higher = enhanced NF-kB activity
- RECORDED CONDITIONS: modulator concentration 10 µM; agonist: CpG ODN 1826 0.5 ug/mL
This section presents compounds with their documented NF-kB reporter values.
Respond numerically, and do not add a unit to the figure.

Worked cases, answers included:
O=C(c1ccccc1)c1cc([N+](=O)[O-])ccc1N1CCOCC1: 2.4
COc1ccc(C(=O)C=Cc2cc(OC)c(OC)c(OC)c2)c(O)c1: 1.63
O=C1OC(CNS(=O)(=O)c2ccccc2Cl)CN1c1ccc(Cl)c(Cl)c1 (stereo not given): 1.08
CC(=O)N1CCN(C(=O)Cn2cnc(-c3ccc(C)cc3)cc2=O)CC1: 0.929

// below: NF-kB reporter requested for another compound
[Q] Quick check: NF-kB reporter of COc1ccc(Cl)cc1C(=O)Nc1cc(C(F)(F)F)cc(C(F)(F)F)c1 ?
[A] 1.03
